tested on: SK-MEL-5 melanoma; assay: NCI tumour cell line growth inhibition, 48 h
endpoint label: TGI (µM)
Report only the number, with the unit µM understood.

# annotated cases, reported TGI shown
Cc1ccc(/C(=N\N=C(N)N)c2ccccc2)cc1; 1.73
COc1ccc(-c2cc(=O)c3c(C)cc(C)nc3[nH]2)cc1; 33.1
Clc1ccc(Cc2nc3ccccc3s2)c(Cl)c1; 32.6
OC1c2ccccc2C2(O)C1C(c1ccccc1)C(c1ccccc1)C2(O)c1ccccc1 (stereo not given); 21.7
O=C1C=CC(=O)C(CNc2ccc(C(=O)OC34CC5CC(CC(C5)C3)C4)cc2)=C1; 16.7
O=C1C=CC=CC2CC=C[C@@H](O)C12 (stereo not given in full); 38
Nc1nc(-c2ccccc2N=NN2CCCC2)nc2ccccc12; 17.8
COc1cc2c(cc1OCCCC(=O)Nc1cc(C(=O)Nc3cc(C(=O)Nc4cc(C(=O)NCCCN(C)C)n(C)n4)n(C)n3)n(C)n1)N=CC1CCCN1C2=O (stereo not given); 47.4

Prompt line: Could you share which TGI value was measured for COC1OC(Cc2nnc(C)o2)C(OCc2ccccc2)C(OCc2ccccc2)C1OCc1ccccc1 (stereo not given) ?
Response line: 30

Prompt line: Could you share which TGI value was measured for `Cc1ccncc1.F[B-](F)(F)F.[Pt+2].c1ccc(-c2cccc(-c3ccccn3)n2)nc1` ?
Response line: 21.7

###

system: HOP-92 NSCLC; assay: NCI tumour cell line growth inhibition, 48 h
Attribute: TGI

CCOC(=O)C(=[N+]=[N-])C(=O)Nc1nn2nnnc2c2ccccc12; > 100 µM

Prompt line: Could you share which TGI value was measured for `Cc1cc(/C=C\c2ccc3ccccc3[n+]2C)c(O)c2ncccc12` ?
Response line: 4.48 µM

Prompt line: Could you share which TGI value was measured for `O=c1[nH]c(=O)n([C@@H]2C[C@H](CO)[C@H](O)C2)cc1/C=C/Br` ?
Response line: > 100 µM

Prompt line: Could you share which TGI value was measured for `O=C(c1ccc2ccccc2c1)c1c(C(F)(F)F)n([O-])c2cc(F)c(F)cc2[n+]1=O` ?
Response line: 3.46 µM

###

test system: OVCAR-8 ovarian; experiment: NCI tumour cell line growth inhibition, 48 h
Attribute: GI50

# annotated cases, reported GI50 shown
CCn1c(C(=O)N(C2CC2)C2CC2)cc2c3c(ncn3C)c(Nc3cc(C)n(C)n3)nc21; > 100000 nM
C=CCN(/C=C1/C(=O)O[C@H](COC)[C@@]2(C)C1=C(O)C(=O)C1=C2[C@H](OC(C)=O)C[C@]2(C)C(=O)CC[C@@H]12)CC=C; 2870 nM

Prompt line: Could you share which GI50 value was measured for `COc1cc(CCN)c2c(c1OC)SSSSS2` ?
Response line: 1220 nM

Prompt line: Could you share which GI50 value was measured for `COc1cc2c(c(OC)c1OC)-c1ccc(N)c(=O)cc1[C@@H](NC(C)=O)CC2` ?
Response line: 47.7 nM

Prompt line: Could you share which GI50 value was measured for `C[C@H](NC(=O)[C@@H]1CSSC[C@@H](NC(=O)c2nc3ccccc3cc2O)C(=O)NCC(=O)N1C)c1ccccc1` ?
Response line: 5160 nM

###

tested on: CAKI-1 renal; assay: NCI tumour cell line growth inhibition, 48 h; in the data active means GI50 below about 0.43 µM; inactive means the rest
The reply should be one of these categories: true = active, false = inactive

Take a look at these entries with their results.
O=C(Nc1ccc(F)cc1)c1ccc(NC2=C(Cl)C(=O)N(Cc3ccccc3)C2=O)cc1; false
O=C([CH-]C(=O)c1ccccc1)c1ccccc1.O=C([CH-]C(=O)c1ccccc1)c1ccccc1.O=C([CH-]C(=O)c1ccccc1)c1ccccc1.[Nd+3].[OH3+]; false
CC1(C)CC[C@H](Nc2ncc(C(F)(F)F)c(-c3c[nH]c4c(P(C)(C)=O)c(C#N)ccc34)n2)CN1; true

Prompt line: Dear colleague, could you share the recorded outcome for COc1ccc(C2SCC(=O)N2NC(=O)C(O)c2ccccc2)cc1OC (centres undefined) when you have a moment?
Response line: false

Prompt line: Dear colleague, could you share the recorded outcome for `COc1cc(/C=C2\CCC/C(=C\c3cc(OC)c(O)c(OC)c3)C2=O)cc(OC)c1O` when you have a moment?
Response line: false

Prompt line: Dear colleague, could you share the recorded outcome for `Cc1cc(/C=C\c2ccc3ccccc3[n+]2C)c(O)c2ncccc12` when you have a moment?
Response line: false

Prompt line: Dear colleague, could you share the recorded outcome for `C=C1SC(=Nc2c(C)cc(C)cc2C)N(C(=O)c2sc3ccccc3c2Cl)C12CCCCC2` when you have a moment?
Response line: false

Prompt line: Dear colleague, could you share the recorded outcome for `O=C1C=C(NCCNC(=S)Nc2ccccc2)c2nccc3c2c1nc1ccccc13` when you have a moment?
Response line: false

Prompt line: Dear colleague, could you share the recorded outcome for `COc1ccc(N2Cc3cnc(Nc4ccccc4)nc3N([C@@H]3CC[C@@H](O)C3)C2=O)cc1` when you have a moment?
Response line: false
